- Study Target: Bcl-xL, Q07817
- Sequence (Q07817 1-209): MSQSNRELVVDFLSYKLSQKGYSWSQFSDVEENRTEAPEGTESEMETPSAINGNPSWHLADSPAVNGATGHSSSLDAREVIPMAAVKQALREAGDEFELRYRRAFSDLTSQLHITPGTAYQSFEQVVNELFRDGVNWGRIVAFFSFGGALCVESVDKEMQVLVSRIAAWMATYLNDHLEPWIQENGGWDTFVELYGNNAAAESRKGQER
- Test Description: peptide SPOT array, c-Myc-tagged receptor at 1 uM or 100 nM, anti-c-Myc-Cy3
Listed next: entries and their corresponding SPOT signal as a fraction of Bim BH3's signal on the same receptor and array.
Measurement Label: SPOT signal as a fraction of Bim BH3's signal on the same receptor and array

# Binder, Val
records = [
    ("CILNSFYGYVMRKGLRWYSMEMAGIV [POLE]", 0.29),
    ("CLSCDLCGCRLGEVGRRLYYKLGRKL [LMO2]", 1.18),
    ("KLPVVGIGKHLCGMATDLALRCLVET [CCDC76]", 0.04),
    ("VENTTDLASILIKDADRLNSGCYELK [TTN]", 0.02),
    ("IKEAADIIQKLHLIAQELPFDRFSEV [EXOC5]", 0.11),
    ("LQIIPTLCHLLRALSDDGVSDLEDPT [DFNA5]", 0.03),
    ("PVGYLVESGRLSVMGCDVLKAVSDYF [MFI2]", 0.04),
    ("SKFVILSAHKDVFIGDTLTRQVTAQD [NEDD9]", 0.02),
    ("DLSAVTLSRELQAMLEQLAENYHNTW [RYR1]", 0.02),
    ("GAQHSTMTSTLRRLLEDIFKGVVTKG [CCDC138]", 0.19),
    ("LALLAQPSHLMRQVLRSVFGHICSHL [MYBBP1A]", 0.75),
    ("AELRLFLAQRLRWLLDSCPASRATCV [NBEAL2]", 0.52),
    ("DQEEACASRQLHSLASFSTVTARRNP [INCA1]", 0.12),
    ("RQAFYLHTTKDTRIARRLCREILRPW [MTA1]", 1.26),
]
